Answer each item with its documented IC50.
Kindly provide the numeric value in nM only, without the unit symbol.

Prompt: Lab note: need IC50 for `Cc1nc2cccc(F)c2c(N)c1COCc1cccc(C(=O)C(F)(F)F)c1` on Acetylcholinesterase (Torpedo californica), anyone have it?
Response: 3.8

Prompt: Lab note: need IC50 for `Cc1nc2cccc(F)c2c(N)c1COCc1ccccc1` on Acetylcholinesterase (Torpedo californica), anyone have it?
Response: 2000

Prompt: Lab note: need IC50 for Cc1nc2cccc(F)c2c(N)c1CSC1(C(F)(F)F)CCCO1 (stereo not given) on Acetylcholinesterase (Torpedo californica), anyone have it?
Response: 18

Prompt: Lab note: need IC50 for Cc1nc2cccc(F)c2c(N)c1CSCc1cccc(C(O)C(F)(F)F)c1 (stereo not given) on Acetylcholinesterase (Torpedo californica), anyone have it?
Response: 11000

Prompt: Lab note: need IC50 for `OC(O)(CCCCCNc1c2c(nc3cccc(Cl)c13)CCCCC2)C(F)(F)F` on Acetylcholinesterase (Torpedo californica), anyone have it?
Response: 36

* * *

Answer each item with its documented pIC50.
Scale: negative log10 of molar concentration, which is what pIC50 denotes.

Prompt: Lab note: need pIC50 for `Cc1nc2ccccc2c(N)c1COCc1cccc(C(=O)C(F)(F)F)c1` on Acetylcholinesterase (Torpedo californica), anyone have it?
Response: 8.52

Prompt: Lab note: need pIC50 for Cc1nc2cccc(F)c2c(N)c1CNC1(C(F)(F)F)CCC(=O)O1 (stereo unspecified) on Acetylcholinesterase (Torpedo californica), anyone have it?
Response: 4.85

Prompt: Lab note: need pIC50 for `CCOC(=O)c1c(C)nc2cccc(F)c2c1N` on Acetylcholinesterase (Torpedo californica), anyone have it?
Response: 5.59

Prompt: Lab note: need pIC50 for Cc1nc2cccc(Cl)c2c(N)c1CNC1(C(F)(F)F)CCC(=O)O1 (stereo unspecified) on Acetylcholinesterase (Torpedo californica), anyone have it?
Response: 5.14

Prompt: Lab note: need pIC50 for `Nc1c2c(nc3cccc(Cl)c13)CCCCC2` on Acetylcholinesterase (Torpedo californica), anyone have it?
Response: 8.62

Prompt: Lab note: need pIC50 for `Cc1nc2cccc(F)c2c(N)c1CSCc1cccc(C(=O)C(F)(F)F)c1` on Acetylcholinesterase (Torpedo californica), anyone have it?
Response: 8.52

Prompt: Lab note: need pIC50 for `Cc1nc2cccc(Cl)c2c(N)c1COCc1cccc(C(=O)C(F)(F)F)c1` on Acetylcholinesterase (Torpedo californica), anyone have it?
Response: 8.29

Prompt: Lab note: need pIC50 for `Cc1nc2cccc(F)c2c(N)c1CN` on Acetylcholinesterase (Torpedo californica), anyone have it?
Response: 5.72

Prompt: Lab note: need pIC50 for `CC(=O)c1cccc(CSCc2c(C)nc3cccc(F)c3c2N)c1` on Acetylcholinesterase (Torpedo californica), anyone have it?
Response: 4.82

Prompt: Lab note: need pIC50 for `O=C(c1cccc(CBr)c1)C(F)(F)F` on Acetylcholinesterase (Torpedo californica), anyone have it?
Response: 6.44

Prompt: Lab note: need pIC50 for `O=C(c1ccc(CNc2c3c(nc4cccc(Cl)c24)CCCCC3)s1)C(F)(F)F` on Acetylcholinesterase (Torpedo californica), anyone have it?
Response: 7.92

Cited source: ChEMBL document CHEMBL1134612
